Exercise: for every item that follows, state its recorded protein stability index.
B1: KLHL14 (parent)
chain: YVIGGRNETGYLSSVECYNLETNE

Variants of: B1
Method Summary: protein stability index of a GFP-peptide fusion (GPS, HEK-293T) (PSI 1-6); higher = more stable;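 note: lentivirally expressed fusions sorted by FACS into six bins by GFP to DsRed ratio, PSI derived from sequencing read proportions per bin multiplied by bin number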
Run Conditions: c terminus: a fixed tail appended

G5Q : 2.1
R6I : 1.67

Please examine the following record next.
# input Indicate its recorded protein stability index; the variant in question is `L12C`
# output 2.32
